Source of measurements: PubChem BioAssay (Tox21)

- experimentalDetails: qHTS RealTime-Glo MT Cell Viability Assay in HEK293 cells - 32 hour (AID 1224868); further: nearly all actives have a fitted effect of over 50% in size
- testConditions: RealTime-Glo luminescence; series mostly up to 76.8 µM
- Description: National Center for Advancing Translational Sciences [NCATS] NIH Chemical Genomics Center [NCGC] U.S. Environmental Protection Agency [EPA] National Institutes of Environmental Health Sciences [NIEHS] National Toxicology Program [NTP] U.S. Food and Drug Administration [FDA] Measure of cell viability is critical in the cell-base assay. Analysis of cell viability is necessary for the characterization of cell responses to cytotoxic drugs and environmental stress. […]
Results filed as inconclusive are left out. Active and inactive are the calls of the source. The call rests on the fitted dose curve; in most records, active means well fitted cell-killing curve with a large enough effect in the repeat runs; inconclusive means weak or mixed curves, or effect the other way; inactive means flat fitted curve, though single readings scatter.
Mark one answer only. Choices: True = active, False = inactive

{"compound": "Cc1c(C)c2c(c(C)c1OC(=O)c1cccnc1)CC[C@@](C)(CCC[C@H](C)CCC[C@H](C)CCCC(C)C)O2", "className": "False"}
{"compound": "Cc1cc(-c2ccc(N=Nc3cc(S(=O)(=O)O)c4ccccc4c3N)c(C)c2)ccc1N=Nc1cc(S(=O)(=O)O)c2ccccc2c1N", "className": "True"}
{"compound": "CC(=O)Oc1cc2c(s1)CCN(C(C(=O)C1CC1)c1ccccc1F)C2 (stereo not drawn)", "className": "False"}
{"compound": "CCCCNS(=O)(=O)c1ccc(C)cc1", "className": "False"}
{"compound": "CC(CCc1ccccc1)NCC(O)c1ccc(O)c(C(N)=O)c1 (stereo not drawn)", "className": "False"}
{"compound": "Nc1ccc(Oc2ccc(Cl)cc2)cc1", "className": "True"}
{"compound": "CC(C)(C)C1CCC(=O)CC1", "className": "False"}
{"compound": "O=C1NC(=O)[C@@H]2CC=CC[C@H]12", "className": "False"}

Lookup: Name the outcome recorded for O=[N+]([O-])c1cccc(C(F)(F)F)c1 in the assay.
Found: False

Lookup: Name the outcome recorded for O=[N+]([O-])c1ccc(F)c(Cl)c1 in the assay.
Found: False

Lookup: Name the outcome recorded for CCOc1ccc2ccccc2c1C(=O)N[C@@H]1C(=O)N2[C@@H]1SC(C)(C)[C@@H]2C(=O)O in the assay.
Found: False

Lookup: Name the outcome recorded for C#C[C@]1(OC(C)=O)CC[C@H]2[C@@H]3CCC4=C[C@@H](OC(C)=O)CC[C@@H]4[C@H]3CC[C@@]21C in the assay.
Found: True

Lookup: Name the outcome recorded for CN(C)Cc1ccccc1O in the assay.
Found: False

Lookup: Name the outcome recorded for Sc1nc2ccccc2s1 in the assay.
Found: False

Lookup: Name the outcome recorded for OC/C=C/CO in the assay.
Found: False

Lookup: Name the outcome recorded for CN1CCN(Cc2cc(-c3ccc4[nH]c(=O)oc4c3)co2)[C@@H](c2ccc(F)cc2)C1 in the assay.
Found: True

Lookup: Name the outcome recorded for CCCCCCCCCCC[C@@H](C[C@@H]1OC(=O)[C@H]1CCCCCC)OC(=O)[C@H](CC(C)C)NC=O in the assay.
Found: True

Lookup: Name the outcome recorded for O=C(O)c1cc(O)c2ccccc2c1O in the assay.
Found: True

Lookup: Name the outcome recorded for C=CCCC(=O)/C=C/C1C(C)=CCCC1(C)C (stereo not drawn) in the assay.
Found: False

====

- testedOn: Cytochrome P450 2C19 (Homo sapiens)
- experimentalDetails: Cytochrome P450 Family 2 Subfamily C Member 19 (CYP2C19) small molecule antagonists: luciferase reporter qHTS assay (AID 1671197); further: nearly all actives have a fitted effect of over 65% in size
- testConditions: P450-Glo CYP2C19 enzyme, luciferin luminescence, 1 h; series mostly up to 115 µM
Inconclusive results are not listed. Calls of active or inactive are those of the source. Calls follow the shape of the dose curve; as a rule, active = well fitted inhibition curve with a large enough effect in the repeat runs; inconclusive = weak or mixed curves; inactive = no such curve, though single readings can be large or run the other way.
Mark one answer only. Choices: active, inactive

Some entries whose results are on file:
{"molecule": "COc1ccc2c(c1)c(CC(=O)OC/C=C(\\C)CC/C=C(\\C)CCC=C(C)C)c(C)n2C(=O)c1ccc(Cl)cc1", "className": "active"}
{"molecule": "COc1cc(/C=C/c2ccccc2)oc(=O)c1", "className": "active"}
{"molecule": "CCCCN(CCCC)CC(O)c1cc(Cl)cc2c1-c1ccc(Cl)cc1/C2=C/c1ccc(Cl)cc1 (stereo unspecified)", "className": "active"}
{"molecule": "CC(=O)Oc1cc2c(s1)CCN(C(C(=O)C1CC1)c1ccccc1F)C2 (stereo unspecified)", "className": "active"}

Lookup: Name the outcome recorded for COC(=O)C1=C(C)NC(C)=C(C(=O)OCCN2CCN(C(c3ccccc3)c3ccccc3)CC2)C1c1cccc([N+](=O)[O-])c1 (stereo unspecified) in the assay.
Found: active

Lookup: Name the outcome recorded for CC(C)OC(=O)C(O)(CC(=O)O)CC(=O)O in the assay.
Found: active
